System: HDM-specific T cells expanded from PBMCs of HDM-allergic individuals
Assay: T cell reactivity of peptides: IFN/IL-5 ELISPOT on in vitro expanded HDM-specific T cells
Assay type: cell-based, human
Conditions: individual peptides 10 μg/mL
Procedure: Each sequence of an “L” cluster was aligned separately using the MEGA software tool with ClustalW. Fifteen-mer peptides overlapping by 10 amino acids were generated and the last 15-mer peptide was added when the sequence length was not divisible by 5, 14,783 unique peptides remained. […]
Lab note: anything with SFC/donor at or over 7 SFC/donor counts as T; the rest go in F.

Determine whether measured SFC/donor meets or exceeds 7 SFC/donor for 119 (RYRFLAHLYTLFYHV; Immunogenic fragment) [compound 119]
T

Determine whether measured SFC/donor meets or exceeds 7 SFC/donor for 118 (SSLQYRYRFLAHLYT; Immunogenic fragment) [compound 118]
T

Determine whether measured SFC/donor meets or exceeds 7 SFC/donor for 103 (QLHYNLHNLYSLSMA; Immunogenic fragment) [compound 103]
T

Determine whether measured SFC/donor meets or exceeds 7 SFC/donor for 73 (TLEQWHSKRYLLRLE; Immunogenic fragment) [compound 73]
F

Determine whether measured SFC/donor meets or exceeds 7 SFC/donor for 134 (TNNMLIIQTKLSIFN; Immunogenic fragment) [compound 134]
F

Determine whether measured SFC/donor meets or exceeds 7 SFC/donor for 91 (GVFLFNSNAMDILTQ; Immunogenic fragment) [compound 91]
T

Determine whether measured SFC/donor meets or exceeds 7 SFC/donor for 78 (ELTLGANQPISSLKN; Immunogenic fragment) [compound 78]
F

Determine whether measured SFC/donor meets or exceeds 7 SFC/donor for 57 (WEGLNAVKTGRVMLG; Immunogenic fragment) [compound 57]
F

These data points were gathered from patent US10556936B2.
